- System: PC-3 prostate
- Assay remarks: NCI tumour cell line growth inhibition, 48 h
So I've got a bunch of compounds here, and I need their TGI values.

// below: answered compounds
CCn1cnc(C[C@H](NC(=O)[C@@H](NC(=O)Nc2cc(C(F)(F)F)cc(C(F)(F)F)c2)C(C)C)C(=O)OC)c1 = 4.03 µM
CC(C)(C)OC(=O)N1CCC(C(=O)O)CC1 = > 100 µM

For every item below, please supply its TGI.
1. C(=N\NC1=NCCN1)/c1ccc(-c2cn3cc(/C=N/NC4=NCCN4)ccc3n2)cc1
2. O=C(Cn1c(=O)c(-c2ccccc2)nc2ccccc21)Nc1ccc(F)cc1
3. COc1nc(C#CC2(O)CCCCC2)nc(OC)n1
4. CC1(N)CCN(c2cccnc2NC(=O)c2nc(-c3ncccc3C(F)(F)F)cnc2N)CC1
5. CCC(C)C1=C(OC(C)=O)[N+]2([O-])Oc3ccc(-c4c(OC(C)=O)c(OC(C)=O)c(-c5ccc(OC(C)=O)cc5)c(OC(C)=O)c4OC(C)=O)cc3OC2(C(C)CC)C(=O)N1OC(C)=O (centres undefined)
6. O=C(/C=C/c1ccc(O)c(-c2cc(C(=O)/C=C/c3ccc(O)cc3)c(O)cc2O)c1)c1ccc(O)cc1O
7. CCC1CN2C(=N1)c1ccccc1-c1cc(Cl)ccc12 (centres undefined)
8. CC1CC[C@@]2(OC1)OC1C[C@H]3[C@@H]4CC=C5CC(OC6OC(CO)C(OC7OC(CO)C(O)C(OC8OCC(O)C(O)C8O)C7OC7OC(CO)C(O)C(O)C7O)C(O)C6O)CCC5(C)[C@H]4CCC3(C)C1[C@@H]2C (some centres undefined)

Reply:
1: > 59.4 µM; 2: > 100 µM; 3: 18.5 µM; 4: > 100 µM; 5: > 50 µM; 6: > 50 µM; 7: 11.8 µM; 8: 7.45 µM

----------
- Test system: HCT-116 colon
- Assay remarks: NCI tumour cell line growth inhibition, 48 h
So I've got a bunch of compounds here, and I need their TGI values.

// below: answered compounds
CCOC(=O)c1c(N)sc2c1C(C)(C(=O)OCC)CC2 (centres undefined) = > 100 µM
CN(C)CCNC(=O)c1cc([N+](=O)[O-])cc2c1Oc1ccccc1O2 = > 100 µM
Cn1c2ccc3cc2c(=S)c2cc(ccc21)OCCOCCOCCOCCOCCO3 = > 10 µM
O=C(NC(=O)c1cn(CCN(CCO)C(=O)NCCCCCCNC(=O)N(CCO)CCn2cc(C(=O)NC(=O)OCc3ccccc3)c(=O)[nH]c2=O)c(=O)[nH]c1=O)OCc1ccccc1 = > 100 µM
CC1=CC(=O)c2ccccc2C1=O = 5.33 µM

For every item below, please supply its TGI.
1. CC[C@]1(Cc2ccc(OC)c(OC)c2)C=[N+]([O-])O[C@H](OC2CCCC2(c2ccccc2)c2ccccc2)[C@@H]1OC(C)=O (some centres undefined)
2. C#CC1(O)C(COP(=O)(O)OC(COCCCCCCCCCCCCCCCCCC)COP(=O)(O)OCC2OC(n3cc(F)c(=O)[nH]c3=O)CC2O)OC(n2ccc(N)nc2=O)C1O (centres undefined)
3. COc1cccc(-c2nn(-c3ccccc3)cc2-c2ccnc(NCCCNC(=O)Nc3ccc(Cl)c(Cl)c3)c2)c1
4. O=C1NC(=S)N/C1=C\c1ccc(Br)s1

Reply:
1. 6.16 µM
2. > 100 µM
3. 5.75 µM
4. > 100 µM
